The reported measurements were obtained from the RNAGym collection of RNA variant scans (doi:10.1093/molbev/msab373).

B1: Azoarcus group I ribozyme (parent)
chain: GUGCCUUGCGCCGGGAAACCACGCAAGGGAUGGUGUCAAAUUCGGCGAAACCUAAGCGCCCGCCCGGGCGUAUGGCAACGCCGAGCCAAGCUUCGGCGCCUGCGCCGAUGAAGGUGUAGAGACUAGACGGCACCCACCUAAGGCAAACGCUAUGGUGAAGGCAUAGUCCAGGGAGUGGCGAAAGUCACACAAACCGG

- Variants of: B1
- method notes: reverse-splicing fitness (ratio to wild type); higher = more active; in vitro selection; Mg2+ level not given
quantity: reverse-splicing fitness

[[record]]
sequence_change = "C82A A111G A145C C150G C169A"
measured = 0.00898

[[record]]
sequence_change = "C82G A111C A120U A145G C150U U176C"
measured = 0.0162

[[record]]
sequence_change = "C82A A120C C169G U176C"
measured = 0.0259

[[record]]
sequence_change = "A111C A120C A145U C150A C169A"
measured = 0.00839

[[record]]
sequence_change = "C82A A120C C150U U176A"
measured = 0.0246

[[record]]
sequence_change = "C82U A111G"
measured = 0.477

